Entries annotated with measured log2 fold change of degron read counts
Target: T1, CRBN, Q96SW2;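 further: pooled lentiviral library of zinc finger degron-EGFP fusions in mCherry-positive Jurkat cells, FACS-sorted after compound exposure, with degron abundance counted by next-generation sequencing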
T1 chain: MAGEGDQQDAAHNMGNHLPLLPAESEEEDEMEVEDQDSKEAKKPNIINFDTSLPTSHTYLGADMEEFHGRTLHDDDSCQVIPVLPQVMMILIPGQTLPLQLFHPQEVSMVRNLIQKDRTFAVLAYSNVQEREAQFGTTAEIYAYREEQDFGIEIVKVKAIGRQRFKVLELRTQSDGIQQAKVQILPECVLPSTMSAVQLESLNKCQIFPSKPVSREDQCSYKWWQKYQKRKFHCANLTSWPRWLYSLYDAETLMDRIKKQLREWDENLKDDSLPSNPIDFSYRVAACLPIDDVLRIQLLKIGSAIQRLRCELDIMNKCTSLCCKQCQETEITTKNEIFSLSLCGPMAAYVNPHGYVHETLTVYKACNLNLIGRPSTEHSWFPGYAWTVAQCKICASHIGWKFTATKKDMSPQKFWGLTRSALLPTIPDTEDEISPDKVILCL
Test: log2 fold change of degron read counts, EGFP-low vs EGFP+ sorted cells (limma voom), compound-induced degradation; higher = more compound-induced degradation of the degron-EGFP fusion; degrons are variants of IKZF1/3 zinc finger 2; compound dose not given here
Conditions: Jurkat; 18 h; compound: compound 22 (5-morpholino-thalidomide)
Whole data set: some 8,300 sequences, median “log2 fold change of degron read counts, EGFP-low vs EGFP+ sorted cells (limma voom), compound-induced degradation” near -1.1, cut for the highest 2% near 3.2. The sample as a whole holds a higher share of the highest values than the screen did.
Please give only the number in your answer, with no unit.

Some solved entries appear below for comparison.
LFCPICGFKCTQKGNLLRHIKL [46L_47F_49P_50I_52G_53F_54K_55C_67L_, Q9UKT9]; 2.98
FQCNQCGHEFTQKGNLLRHIKL [46F_47Q_49N_50Q_52G_53H_54E_55F_67L_, Q9UKT9]; -3.12
FECNICGAHFTQKGNLLRHIKL [46F_47E_49N_50I_52G_53A_54H_55F_67L_, Q9UKT9]; -2.29

query: // query log2 fold change of degron read counts value for entry FFCEICGHRFTQKGNLLRHIKL [46F_47F_49E_50I_52G_53H_54R_55F_67L_, Q9UKT9]
result: -1.44

query: // query log2 fold change of degron read counts value for entry FNCEICGAPFTQKGNLLRHIKL [46F_47N_49E_50I_52G_53A_54P_55F_67L_, Q9UKT9]
result: 2.54

query: // query log2 fold change of degron read counts value for entry LQCPICGFKCTQKGNLLRHIKL [46L_47Q_49P_50I_52G_53F_54K_55C_67L_, Q9UKT9]
result: 2.43

query: // query log2 fold change of degron read counts value for entry FLCEICGAQFTQKGNLLRHIKL [46F_47L_49E_50I_52G_53A_54Q_55F_67L_, Q9UKT9]
result: -0.49

query: // query log2 fold change of degron read counts value for entry LHCPICGFKCTQKGNLLRHIKL [46L_47H_49P_50I_52G_53F_54K_55C_67L_, Q9UKT9]
result: 2.18

query: // query log2 fold change of degron read counts value for entry LSCPICGFKCTQKGNLLRHIKL [46L_47S_49P_50I_52G_53F_54K_55C_67L_, Q9UKT9]
result: 1.87

query: // query log2 fold change of degron read counts value for entry LVCPICGFKCTQKGNLLRHIKL [46L_47V_49P_50I_52G_53F_54K_55C_67L_, Q9UKT9]
result: 2.13
